- System: human γ-globin promoter (EGFP reporter) in K562 cells
- assay-remarks: HbF activation assay on K562 (EGFP/RFP reporter model system for screening of inducers of fetal hemoglobin)
- Assay type: cell-based
- measurement-context: 60 hours
quantity-name: EC50

As a guide, the following entries are already answered.
> print(dat)
                                   compound  quantity.name      reading
1  CCC(=O)CCCCC[C@H](NC(=O)C1CCN(C)C1)c1ncc(-c2cc3ccccc3nc2OC)o1 (stereo partly shown)           EC50  0.1 to 1 µM
2  CCC(=O)CCCCC[C@H](NC(=O)Cc1cc2ncccn2n1)c1ncc(-c2cc3ccccc3nc2OC)o1           EC50       > 1 µM
3  CCC(=O)CCCCC[C@H](NC(=O)C1(N(C)C)CCCC1)c1ncc(-c2cc3ccccc3nc2OC)o1           EC50  0.1 to 1 µM

Exercise: Identify measured EC50 associated with "CCC(=O)CCCCC[C@H](NC(=O)C1CN(C)C1)c1ncc(-c2cc3ccccc3[nH]c2=O)o1"
Key: 0.1 to 1 µM
